Please go through the items and note down their pEC50.
- TGT: human FPR2 (Homo sapiens)
- EXPERIMENT SUMMARY: FPR2 cyclic adenosine monophosphate (cAMP) assay
- STATED CONDITIONS: CHO cells overexpressing human FPR2; forskolin 5 μM; inhibition of cAMP production; HTRF; read-out: hFPR2 cAMP2 EC50
Numbers only, as −log10 of the molar value.

Reference set (3 entries):
For the compound `COc1cc(F)c(-c2c(NC(=O)c3ccc(OC(F)F)cc3)c(=O)n(-c3nccc(C4CCCCC4)c3C#N)n2C)c(F)c1` , give its measured pEC50 value.
8.30

Query pEC50 for `COc1cc(F)c(-c2c(NC(=O)c3ccc(OC(F)F)cc3)c(=O)n(-c3cccc(N4CCN(S(C)(=O)=O)CC4)n3)n2C)c(F)c1`
7.80

Quote pEC50 reported for `COc1cc(F)c(-c2c(NC(=O)c3ccc(OC(F)F)cc3)c(=O)n(-c3nc(CO)ccc3C(F)(F)F)n2C)c(F)c1` please.
7.85

Batch request: pEC50 per item, same order as input.
1. COc1cc(F)c(-c2c(NC(=O)c3ccc(OC(F)(F)F)cc3)c(=O)n(-c3ncccc3Cl)n2C)c(F)c1
2. COc1cc(N2CCCC2)nc(-n2c(=O)c(NC(=O)c3ccc(OC(F)F)cc3)c(-c3c(F)cc(OC)cc3F)n2C)c1
3. COc1cc(F)c(-c2c(NC(=O)c3ccc(OC(F)F)cc3)c(=O)n(-c3ccccc3C#N)n2C)c(F)c1
4. COc1cc(F)c(-c2c(NC(=O)c3ccc(OC(F)F)cc3)c(=O)n(-c3cccc(N4CCN(C)CC4)n3)n2C)c(F)c1

8.15
7.70
7.70
8.70

###

- TGT: human FPR2 (Homo sapiens, UniProt P25090)
- Sequence (P25090 1-351): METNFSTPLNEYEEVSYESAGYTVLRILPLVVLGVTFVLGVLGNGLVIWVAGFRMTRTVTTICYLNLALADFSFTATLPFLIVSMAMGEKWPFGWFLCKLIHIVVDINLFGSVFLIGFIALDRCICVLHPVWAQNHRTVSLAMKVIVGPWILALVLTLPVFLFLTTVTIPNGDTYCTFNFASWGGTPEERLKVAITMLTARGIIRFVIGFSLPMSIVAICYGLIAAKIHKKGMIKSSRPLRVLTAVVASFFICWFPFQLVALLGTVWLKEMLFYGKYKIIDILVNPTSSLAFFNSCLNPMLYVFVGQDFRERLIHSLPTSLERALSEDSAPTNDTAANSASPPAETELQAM
- EXPERIMENT SUMMARY: FPR2 cyclic adenosine monophosphate (cAMP) assay
- Assay type: cell-based
- STATED CONDITIONS: CHO cells overexpressing human FPR2; forskolin 5 μM; inhibition of cAMP production; HTRF; read-out: hFPR2 cAMP2 EC50
Provide the recorded pEC50 for the entries that follow.
One number for each entry, as −log10 of the molar value.

The cases that follow already have their pEC50 on record.
Read the entry `COc1cc(F)c(-c2c(NC(=O)c3ccc(OC(F)F)cc3)c(=O)n(-c3cc(C#N)cc(C(F)(F)F)n3)n2C)c(F)c1` and write its reported pEC50.
8.00

Identify pEC50 associated with the compound `CNC(=O)CN(C)c1ccc(C(F)(F)F)c(-n2c(=O)c(NC(=O)c3ccc(OC(F)F)cc3)c(-c3c(F)cc(OC)cc3F)n2C)n1`
8.00

Report measured pEC50; entry is `COc1ccc(-c2c(NC(=O)c3ccc(OC(F)F)cc3)c(=O)n(-c3ncccc3C(F)(F)F)n2C)c(F)c1`
8.10

Supply reported pEC50 belonging to this compound: `COc1cc(F)c(-c2c(NC(=O)c3ccc(OC(F)F)cc3)c(=O)n(-c3ccnc(OC)c3)n2C)c(F)c1`
8.30

Fill in pEC50 for record `COc1cc(F)c(-c2c(NC(=O)c3ccc(OC(F)F)cc3)c(=O)n(-c3cc(C#N)cc(C(C)C)c3)n2C)c(F)c1`
8.10

Answer with reported pEC50 of `COc1cc(F)c(-c2c(NC(=O)c3ccc(OC(F)(F)F)cc3)c(=O)n(-c3cc(C)ccn3)n2C)c(F)c1`
7.89

Turning now to a further compound:
Tell me its pEC50 given `COc1cc(F)c(-c2c(NC(=O)c3ccc(OC(F)F)cc3)c(=O)n(-c3nc(N(C4CC4)C4CC4)ccc3C(F)(F)F)n2C)c(F)c1` as the entry.
8.70

###

What EC50 was measured for each of the following?
- TGT: human FPR1 (Homo sapiens)
- Sequence (P21462 1-350): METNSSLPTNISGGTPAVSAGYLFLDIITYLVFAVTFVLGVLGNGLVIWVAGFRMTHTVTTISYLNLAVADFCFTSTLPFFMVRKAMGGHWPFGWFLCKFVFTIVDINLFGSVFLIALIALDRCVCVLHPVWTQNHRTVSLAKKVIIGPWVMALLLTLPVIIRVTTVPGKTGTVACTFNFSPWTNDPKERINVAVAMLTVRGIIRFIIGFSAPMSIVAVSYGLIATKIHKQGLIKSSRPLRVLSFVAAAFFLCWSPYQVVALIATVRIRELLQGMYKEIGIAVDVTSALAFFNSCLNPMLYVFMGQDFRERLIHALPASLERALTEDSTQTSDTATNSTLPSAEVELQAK
- EXPERIMENT SUMMARY: FPR1 cyclic adenosine monophosphate (cAMP) assay
- STATED CONDITIONS: CHO cells overexpressing human FPR1; forskolin 10 μM; inhibition of cAMP production; HTRF; read-out: hFPR1 cAMP2 EC50

Please list EC50 recorded for the compound `COc1cc(F)c(-c2c(NC(=O)c3ccc(OC(F)F)cc3)c(=O)n(-c3nc(C(C)(C)O)ccc3C(F)(F)F)n2C)c(F)c1`
> 10 µM

Return EC50 for the following compound: `COc1cc(F)c(-c2c(NC(=O)c3ccc(OC(F)F)cc3)c(=O)n(-c3cc(Cl)cc(Cl)c3)n2C)c(F)c1`
> 10 µM

Indicate the recorded EC50 value for this compound: `COc1cc(F)c(-c2c(NC(=O)c3ccc(OC(F)F)cc3)c(=O)n(-c3nc(NC4CC4)ccc3C(F)(F)F)n2C)c(F)c1`
> 10 µM

Name the recorded EC50 of the item `Cn1c(-c2ccc(C3CC3)cc2)c(NC(=O)c2ccc(OC(F)F)cc2)c(=O)n1-c1ncccc1C(F)(F)F` in your answer.
0.73 µM

# return recorded EC50 for input `COc1cc(F)c(-c2c(NC(=O)c3ccc(OC(F)F)cc3)c(=O)n(-c3nc(N4CCN(C)C(=O)C4)ccc3C(F)(F)F)n2C)c(F)c1`
0.56 µM

Indicate its recorded EC50; the compound in question is `COc1cc(F)c(-c2c(NC(=O)c3ccc(OC(F)F)cc3)c(=O)n(-c3cccc(CN4CCN(C)CC4)n3)n2C)c(F)c1`
> 10 µM

For the compound `COc1cc(F)c(-c2c(NC(=O)c3ccc(OC(F)F)cc3)c(=O)n(-c3nc(N[C@@H](C)CO)ccc3C(F)(F)F)n2C)c(F)c1` , give its reported EC50.
> 5 µM

Identify EC50 associated with the compound `COc1cc(F)c(-c2c(NC(=O)c3ccc(OC(F)F)cc3)c(=O)n(-c3cccc(C)n3)n2C)c(F)c1`
> 10 µM

Take each entry in turn and give its EC50.
1. COc1cc(F)c(-c2c(NC(=O)c3ccc(OC(F)(F)F)cc3)c(=O)n(-c3ncccc3C#N)n2C)c(F)c1
2. COc1ccc(-c2c(NC(=O)c3ccc(OC(F)F)cc3)c(=O)n(-c3ncccc3C(F)(F)F)n2C)cc1F
3. CNC(=O)CN(C)c1ccc(C(F)(F)F)c(-n2c(=O)c(NC(=O)c3ccc(OC(F)F)cc3)c(-c3c(F)cc(OC)cc3F)n2C)n1
4. COc1cc(F)c(-c2c(NC(=O)c3ccc(OC(F)F)cc3)c(=O)n(-c3cc(OCC(C)O)cc(C)n3)n2C)c(F)c1 (stereo not shown) [Example 393]

> 10 µM
1.2 µM
> 10 µM
2.8 µM

Specify measured EC50 for `COc1cc(F)c(-c2c(NC(=O)c3ccc(OC(F)F)cc3)c(=O)n(-c3nc(N4CC5(CC(O)C5)C4)ccc3Cl)n2C)c(F)c1` .
> 5 µM

###

Task for the reader: assign each of the following compounds its reported pEC50.
- TGT: human FPR2 (Homo sapiens)
- Sequence (P25090 1-351): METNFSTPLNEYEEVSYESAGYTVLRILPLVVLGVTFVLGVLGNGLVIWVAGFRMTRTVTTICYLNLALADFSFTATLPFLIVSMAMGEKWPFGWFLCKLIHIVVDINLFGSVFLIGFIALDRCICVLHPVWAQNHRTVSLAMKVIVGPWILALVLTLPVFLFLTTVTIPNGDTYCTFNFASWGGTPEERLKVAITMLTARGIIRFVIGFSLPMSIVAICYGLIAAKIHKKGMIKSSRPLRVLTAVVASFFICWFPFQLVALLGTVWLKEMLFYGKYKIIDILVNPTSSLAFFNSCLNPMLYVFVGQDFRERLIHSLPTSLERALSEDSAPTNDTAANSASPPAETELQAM
- EXPERIMENT SUMMARY: FPR2 cyclic adenosine monophosphate (cAMP) assay
- STATED CONDITIONS: CHO cells overexpressing human FPR2; forskolin 5 μM; inhibition of cAMP production; HTRF; read-out: hFPR2 cAMP2 EC50
Answers are plain numbers, as −log10 of the molar value.

Known results for compounds:
Give pEC50 for the following compound: `CCOC1(c2ccc(C#N)c(-n3c(=O)c(NC(=O)c4ccc(OC(F)F)cc4)c(-c4c(F)cc(OC)cc4F)n3C)n2)CC1`
8.40

Kindly indicate its recorded pEC50. Item: `COc1cc(F)c(-c2c(NC(=O)c3ccc(OC(F)F)cc3)c(=O)n(-c3nc(NCC(N)=O)ccc3C(F)(F)F)n2C)c(F)c1`
7.89

Look up pEC50 for the entries below, preserving their order.
1. COc1cc(F)c(-c2c(NC(=O)c3ccc(OC(F)F)cc3)c(=O)n(-c3cc(F)ccc3C#N)n2C)c(F)c1
2. COc1cc(F)c(-c2c(NC(=O)c3ccc(OC(F)(F)F)cc3)c(=O)n(-c3c(F)cccc3F)n2C)c(F)c1

[7.85, 8.05]

From: patent US12577206B2
